Assay: CREB reporter modulators without forskolin, primary screen, cell-based, PC12, CRE-LacZ reporter, unstimulated (AID 1145)
Conditions: no forskolin, luminescence, 4.5 h, higher = more signal, called active from +8 up or from −8 down
Param threshold (0.4) applies to z-score; output 1.0 when value >= threshold, 0.0 when value < threshold.

[
  {
    "compound": "O=C(C=Cc1ccc2c(c1)OCO2)c1ccc(F)cc1",
    "category": 1.0
  },
  {
    "compound": "CCOC(=O)NN=C1C[C@@H](O)[C@@H](O)[C@@H]2[C@@H]3C(=O)N(c4cccc(Oc5ccccc5)c4)C(=O)[C@@H]3CC[C@H]12",
    "category": 1.0
  },
  {
    "compound": "CO[C@@H]1C=CCC(=O)N2CCC[C@H]2C(=O)OC[C@@H](C)C(=O)OC[C@H]1C",
    "category": 0.0
  },
  {
    "compound": "CCOC(=O)[C@H](CC(C)C)NC(=O)CCC1CC(OC(=O)NCc2cccc3ccccc23)CC2(CCCC(COC(=O)NCCOc3ccccc3)O2)O1 (stereo not given in full)",
    "category": 0.0
  },
  {
    "compound": "CO[C@H]1COC(=O)CC=C[C@H](C)COC(=O)[C@@H](C)NC(=O)CC=C[C@@H]1C",
    "category": 0.0
  },
  {
    "compound": "CCOC(=O)[C@H](CC(C)C)NC(=O)CCC1CC(OC(=O)NCc2cccc3ccccc23)CC2(CCCC(COC(=O)NCCc3ccc(Cl)cc3)O2)O1 (stereo not given in full)",
    "category": 0.0
  },
  {
    "compound": "CO[C@H]1COC(=O)[C@@H]2CCCN2C(=O)CC=C[C@@H](C)[C@H](OC)COC(=O)[C@@H](OCc2ccccc2)C=C[C@@H]1C",
    "category": 1.0
  },
  {
    "compound": "CC(C)=CCCC(C)=CCON=C1C[C@@H](O)[C@@H](O)[C@@H]2[C@@H]3C(=O)N(Cc4ccccc4)C(=O)[C@@H]3CC[C@H]12",
    "category": 0.0
  },
  {
    "compound": "C#CCCCON=C1C[C@@H](O)[C@@H](O)[C@@H]2[C@@H]3C(=O)N(c4ccc(F)cc4F)C(=O)[C@@H]3CC[C@@H]12",
    "category": 0.0
  },
  {
    "compound": "COc1ccc(O[C@H]2C=C[C@@H](c3ccccc3)O[C@@H]2CON=C(C)CCC(=O)OC[C@H]2O[C@H](c3ccccc3)C=C[C@@H]2Oc2ccc(OC)cc2)cc1",
    "category": 0.0
  },
  {
    "compound": "CC(=O)OC[C@H]1O[C@@H](ON=C(C)CCN2CCCc3nc(C)c(C)cc32)[C@H](OC(C)=O)[C@@H](OC(C)=O)[C@@H]1OC(C)=O",
    "category": 1.0
  },
  {
    "compound": "O=C(NN=C1C[C@@H](O)[C@@H](O)[C@@H]2[C@@H]3C(=O)N(Cc4ccccc4)C(=O)[C@@H]3CC[C@@H]12)OCc1ccccc1",
    "category": 0.0
  },
  {
    "compound": "CCc1cc2c(nc1CC)CCN(CCC(C)=NO[C@@H](C)c1cn([C@H](CO)Cc3ccccc3)nn1)C2",
    "category": 0.0
  },
  {
    "compound": "COC(=O)C=CCCc1coc(C=CCNC(=O)OC)n1",
    "category": 0.0
  },
  {
    "compound": "CCOC(=O)[C@H](CC(C)C)NC(=O)CCC1CC(OC(=O)NCc2cccc3ccccc23)CC2(CCCC(COC(=O)NCCC(C)C)O2)O1 (stereo not given in full)",
    "category": 1.0
  }
]
